// provenance: patent US20210032365A1

The entries below come with measured KD 5(+)/7(+) values attached.
Target: T1, human C1s (human, UniProt P09871 16-688)
T1 construct: Analyte in the Biacore assays; also called hC1s; serum-derived human C1s (CompTech)
T1 sequence: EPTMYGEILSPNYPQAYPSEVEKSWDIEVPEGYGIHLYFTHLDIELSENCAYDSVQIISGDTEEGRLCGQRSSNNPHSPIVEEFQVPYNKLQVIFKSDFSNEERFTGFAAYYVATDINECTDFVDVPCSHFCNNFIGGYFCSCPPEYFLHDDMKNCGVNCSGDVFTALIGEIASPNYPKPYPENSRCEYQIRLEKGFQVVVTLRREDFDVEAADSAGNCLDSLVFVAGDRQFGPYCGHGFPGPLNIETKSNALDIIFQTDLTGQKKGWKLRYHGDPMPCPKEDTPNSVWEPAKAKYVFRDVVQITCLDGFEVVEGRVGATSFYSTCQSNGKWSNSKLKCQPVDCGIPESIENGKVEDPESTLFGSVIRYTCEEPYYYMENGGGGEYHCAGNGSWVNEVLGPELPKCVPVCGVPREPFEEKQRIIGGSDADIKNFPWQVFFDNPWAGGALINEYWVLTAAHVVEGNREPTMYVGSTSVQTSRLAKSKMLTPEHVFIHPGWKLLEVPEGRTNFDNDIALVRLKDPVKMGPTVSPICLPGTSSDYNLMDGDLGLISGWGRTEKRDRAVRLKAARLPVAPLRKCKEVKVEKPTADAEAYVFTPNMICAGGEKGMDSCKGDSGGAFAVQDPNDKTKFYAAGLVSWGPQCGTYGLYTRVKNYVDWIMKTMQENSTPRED
Test: SPR; KD at pH 5.8 (1.2 mM Ca) over KD at pH 7.4 (1.2 mM Ca)

Previously resolved entries follow.
{"columns": ["Binder", "Reported"],
 "data": [
  ["C1_IPN92H0162-SG4GK/IPN93L0024-SK1 (antibody, human IgG4 S228P, kappa, name in Kabat numbering, V domains shown, Substitutions from IPN009VH2, Kabat numbering; also called IPN92H0162/IPN93L0024) VH: EVMLVESGGGLVKPGGSLRLSCAASGFTFSNYAMSWVRQAPGKGLEWVATISSGGSHTYKLDSVKGRFTISRDNSKDTLYLQMNSLRAEDTALYYCARLFTGHAMDYWGQGTLVTVSS VL: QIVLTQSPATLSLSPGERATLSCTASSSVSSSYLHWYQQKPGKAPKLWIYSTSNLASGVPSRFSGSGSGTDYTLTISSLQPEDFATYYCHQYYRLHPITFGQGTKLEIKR", 6.4],
  ["C1_IPN92H0160-SG4GK/IPN93L0024-SK1 (antibody, human IgG4 S228P, kappa, name in Kabat numbering, V domains shown, Substitutions from IPN009VH2, Kabat numbering; also called IPN92H0160/IPN93L0024) VH: EVMLVESGGGLVKPGGSLRLSCAASGFTFSNYAMSWVRQAPGKGLEWVATISSGGSHTYELDSVKGRFTISRDNSKDTLYLQMNSLRAEDTALYYCARLFTGHAMDYWGQGTLVTVSS VL: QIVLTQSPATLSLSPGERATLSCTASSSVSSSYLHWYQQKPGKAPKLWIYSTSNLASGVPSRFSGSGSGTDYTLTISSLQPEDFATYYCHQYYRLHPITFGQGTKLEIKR", 9]
]}

Turning now to a further binder:
Query string: Query (binder): C1_IPN92H0147-SG4GK/IPN93L0024-SK1 (antibody, human IgG4 S228P, kappa, name in Kabat numbering, V domains shown, Substitutions from IPN009VH2, Kabat numbering; also called IPN92H0147/IPN93L0024) VH: EVMLVESGGGLVKPGGSLRLSCAASGFTFSNYAMSWVRQAPGKGLEWVATISSGGSHDYYLDSVKGRFTISRDNSKDTLYLQMNSLRAEDTALYYCARLFTGHAMDYWGQGTLVTVSS VL: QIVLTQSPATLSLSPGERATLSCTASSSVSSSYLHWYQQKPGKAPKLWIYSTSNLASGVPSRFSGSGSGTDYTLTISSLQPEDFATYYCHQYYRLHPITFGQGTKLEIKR ; field requested: KD 5(+)/7(+)
Result string: 6.4
